Reference source: patent US20100016379A1

- Test system: HIV
- method_description: cell-based HIV luciferase reporter infection assay (Screen 1)
- study_conditions: Human immunodeficiency virus 1, read-out: HIV Activity EC50
pEC50: −log10 of the molar value.
value_kind: pEC50

compound	result
COC(=O)c1ccc(C(=O)NCc2cccc(OC)c2)c(O)c1O	6.30 to 7.30
COC(=O)c1ccc(C(=O)NCc2cccc([N+](=O)[O-])c2)c(O)c1O	> 7.30
O=C(NCc1ccccc1)c1ccccc1O [Compound 4, N-benzyl-2-hydroxybenzamide]	< 5.70
COC(=O)c1ccc(C(=O)NCc2ccccn2)c(O)c1O	6.30 to 7.30
COC(=O)c1ccc(C(=O)NCc2ccc(OC)cc2)c(O)c1O	5.70 to 6.30
COC(=O)c1ccc(C(=O)N(C)Cc2ccccc2)c(O)c1O	< 5.70
COC(=O)c1ccc(C(=O)NCc2ccc(C(F)(F)F)cc2)c(O)c1O	5.70 to 6.30
O=C(NCc1ccccc1)c1cccnc1O [Compound 6, N-benzyl-2-hydroxypyridine-3-carboxamide]	< 5.70
O=C(NCc1ccccc1)c1cccc(O)c1O [Compound 2, N-benzyl-2,3-dihydroxybenzamide]	< 5.70
COC(=O)c1ccc(C(=O)NCc2ccccc2C(F)(F)F)c(O)c1O	6.30 to 7.30

====

- method_description: cytotoxicity assay (Screen 3)
- Type: cell-based
- study_conditions: human, HE 293T cells
value_kind: CC50

molecule	result
COC(=O)c1ccc(C(=O)NCc2ccccc2)c(O)c1O [Compound 1]	> 2 µM
O=C(NCc1ccccc1)c1ccccc1O [Compound 4, N-benzyl-2-hydroxybenzamide]	> 2 µM
O=C(NCc1ccccc1)c1cccnc1O [Compound 6, N-benzyl-2-hydroxypyridine-3-carboxamide]	> 2 µM
COC(=O)c1ccc(C(=O)Nc2ccccc2)c(O)c1O [Compound 20]	0.5 to 2 µM
COC(=O)c1ccc(C(=O)NCc2ccc([N+](=O)[O-])cc2)c(O)c1O [Compound 12]	0.5 to 2 µM
O=C(NCc1ccccc1)c1cccc(O)c1 [Compound 3, N-benzyl-3-hydroxybenzamide]	> 2 µM
COC(=O)c1ccc(C(=O)NCc2cccc([N+](=O)[O-])c2)c(O)c1O [Compound 11]	0.5 to 2 µM
COC(=O)c1ccc(C(=O)NCc2ccncc2)c(O)c1O [Compound 18]	> 2 µM
COC(=O)c1ccc(C(=O)NCc2ccccc2OC)c(O)c1O [Compound 7]	0.5 to 2 µM
O=C(NCc1ccccc1)c1cccc(O)n1 [Compound 5, N-benzyl-6-hydroxypyridine-2-carboxamide]	> 2 µM
COC(=O)c1ccc(C(=O)N(C)Cc2ccccc2)c(O)c1O [Compound 19]	> 2 µM
COC(=O)c1ccc(C(=O)NCc2ccc(OC)cc2)c(O)c1O [Compound 9]	> 2 µM
Cc1ccnc2c1NC(=O)c1cccnc1N2C1CC1 [NVP, Nevirapine, reference compound]	> 2 µM
COC(=O)c1ccc2c(=O)n(Cc3ccccc3)c(=O)oc2c1O [Compound 21]	> 2 µM

====

- method_description: cytotoxicity assay (Screen 3)
- Assay type: cell-based
- study_conditions: human, HE 293T cells
value_kind: CC50

compound	value_kind	result
CC(C)Oc1ccc(Cc2ccccc2)cc1C(=O)CC(=O)C(=O)O [DKA, reference compound]	CC50	> 2 µM
COC(=O)c1ccc(C(=O)NCc2cccc(C(F)(F)F)c2)c(O)c1O	CC50	0.5 to 2 µM
COC(=O)c1ccc(C(=O)NCc2ccccn2)c(O)c1O	CC50	> 2 µM
COC(=O)c1ccc(C(=O)NCc2ccccc2C(F)(F)F)c(O)c1O	CC50	0.5 to 2 µM
COC(=O)c1ccc(C(=O)NCc2ccccc2[N+](=O)[O-])c(O)c1O	CC50	0.5 to 2 µM
COC(=O)c1ccc(C(=O)NCc2cccnc2)c(O)c1O	CC50	> 2 µM
COC(=O)c1ccc(C(=O)NCc2ccc(C(F)(F)F)cc2)c(O)c1O	CC50	0.5 to 2 µM
O=C(NCc1ccccc1)c1cccc(O)c1O [Compound 2, N-benzyl-2,3-dihydroxybenzamide]	CC50	> 2 µM
COC(=O)c1ccc(C(=O)NCc2cccc(OC)c2)c(O)c1O	CC50	> 2 µM

====

- subject_of_test: HIV-1 integrase (Human immunodeficiency virus type 1 group M subtype B, UniProt P04585)
- Construct: An HIV-1 integrase strand transfer assay
- method_description: HIV-1 integrase strand transfer assay (Screen 2)
- Type: biochemical
- study_conditions: strand transfer assay; read-out: Integrase Activity IC50
pIC50: −log10 of the molar value.
The compounds listed here are annotated with their pIC50.

compound	subject_of_test	pIC50
COC(=O)c1ccc(C(=O)NCc2ccc([N+](=O)[O-])cc2)c(O)c1O	HIV-1 integrase (Human immunodeficiency virus type 1 group M subtype B, UniProt P04585)	6.30 to 7.30
COC(=O)c1ccc(C(=O)NCc2ccccc2C(F)(F)F)c(O)c1O	HIV-1 integrase (Human immunodeficiency virus type 1 group M subtype B, UniProt P04585)	6.30 to 7.30
COC(=O)c1ccc(C(=O)NCc2ccccc2OC)c(O)c1O	HIV-1 integrase (Human immunodeficiency virus type 1 group M subtype B, UniProt P04585)	> 7.30
COC(=O)c1ccc(C(=O)NCc2cccc(OC)c2)c(O)c1O	HIV-1 integrase (Human immunodeficiency virus type 1 group M subtype B, UniProt P04585)	> 7.30
COC(=O)c1ccc(C(=O)NCc2ccc(OC)cc2)c(O)c1O	HIV-1 integrase (Human immunodeficiency virus type 1 group M subtype B, UniProt P04585)	> 7.30
COC(=O)c1ccc(C(=O)NCc2ccccn2)c(O)c1O	HIV-1 integrase (Human immunodeficiency virus type 1 group M subtype B, UniProt P04585)	6.30 to 7.30
COC(=O)c1ccc(C(=O)NCc2ccncc2)c(O)c1O	HIV-1 integrase (Human immunodeficiency virus type 1 group M subtype B, UniProt P04585)	6.30 to 7.30
COC(=O)c1ccc(C(=O)NCc2cccnc2)c(O)c1O	HIV-1 integrase (Human immunodeficiency virus type 1 group M subtype B, UniProt P04585)	6.30 to 7.30
CC(C)Oc1ccc(Cc2ccccc2)cc1C(=O)CC(=O)C(=O)O [DKA, reference compound]	HIV-1 integrase (Human immunodeficiency virus type 1 group M subtype B, UniProt P04585)	6.30 to 7.30
COC(=O)c1ccc(C(=O)NCc2cccc([N+](=O)[O-])c2)c(O)c1O	HIV-1 integrase (Human immunodeficiency virus type 1 group M subtype B, UniProt P04585)	> 7.30

====

- Test system: HIV
- method_description: cell-based HIV luciferase reporter infection assay (Screen 1)
- study_conditions: Human immunodeficiency virus 1, read-out: HIV Activity EC50
- Method: HIV therapeutic agents inhibit propagation of HIV in cells, and as such cell-based assays of HIV antiviral activity have been developed. For example, Pauwels et al, Nature (1990) 343: 470-4 describe incubating HIV infected cells with test compounds and subsequently determining cell viability via colorimetric methods, to give an EC50 for the inhibition of HIV-1 replication. […]

molecule	EC50
CC(C)Oc1ccc(Cc2ccccc2)cc1C(=O)CC(=O)C(=O)O [DKA, reference compound]	0.05 to 0.5 µM
COC(=O)c1ccc(C(=O)NCc2ccccc2)c(O)c1O	0.05 to 0.5 µM
COC(=O)c1ccc2c(=O)n(Cc3ccccc3)c(=O)oc2c1O	0.05 to 0.5 µM
COC(=O)c1ccc(C(=O)Nc2ccccc2)c(O)c1O	< 0.05 µM
COC(=O)c1ccc(C(=O)NCc2ccccc2OC)c(O)c1O	< 0.05 µM

====

The molecules listed here are annotated with their pEC50.
- Tested on: NNRTI resistant mutant K103N
- method_description: Inhibition of NNRTI resistant mutants, K103N
- Assay type: cell-based, HIV
- study_conditions: Human immunodeficiency virus 1, read-out: Inhibition of NNRTI resistant mutants (EC50) K103N
- Protocol: Select compounds are assayed against key NNRTI resistant mutants.
pEC50: −log10 of the molar value.

molecule	pEC50
COC(=O)c1ccc(C(=O)Nc2ccccc2)c(O)c1O	> 7.30
COC(=O)c1ccc(C(=O)NCc2ccccn2)c(O)c1O	6.30 to 7.30
COC(=O)c1ccc(C(=O)NCc2cccc(OC)c2)c(O)c1O	6.30 to 7.30
COC(=O)c1ccc(C(=O)NCc2ccccc2OC)c(O)c1O	> 7.30
COC(=O)c1ccc(C(=O)NCc2ccccc2[N+](=O)[O-])c(O)c1O	> 7.30
CC(C)Oc1ccc(Cc2ccccc2)cc1C(=O)CC(=O)C(=O)O [DKA, reference compound]	> 7.30
Cc1ccnc2c1NC(=O)c1cccnc1N2C1CC1 [NVP, Nevirapine, reference compound]	< 5.70
COC(=O)c1ccc2c(=O)n(Cc3ccccc3)c(=O)oc2c1O	6.30 to 7.30
COC(=O)c1ccc(C(=O)NCc2cccc([N+](=O)[O-])c2)c(O)c1O	> 7.30

====

The molecules listed here are annotated with their EC50.
- Tested on: HIV
- method_description: cell-based HIV luciferase reporter infection assay (Screen 1)
- study_conditions: Human immunodeficiency virus 1, read-out: HIV Activity EC50

molecule	EC50
COC(=O)c1ccc(C(=O)NCc2ccc([N+](=O)[O-])cc2)c(O)c1O [Compound 12]	50 to 500 nM
Cc1ccnc2c1NC(=O)c1cccnc1N2C1CC1 [NVP, Nevirapine, reference compound]	50 to 500 nM
COC(=O)c1ccc(C(=O)NCc2ccncc2)c(O)c1O [Compound 18]	50 to 500 nM
COC(=O)c1ccc(C(=O)NCc2cccc(C(F)(F)F)c2)c(O)c1O [Compound 14]	500 to 2000 nM
O=C(NCc1ccccc1)c1cccc(O)n1 [Compound 5, N-benzyl-6-hydroxypyridine-2-carboxamide]	> 2000 nM
O=C(NCc1ccccc1)c1cccc(O)c1 [Compound 3, N-benzyl-3-hydroxybenzamide]	> 2000 nM
COC(=O)c1ccc(C(=O)NCc2ccccc2[N+](=O)[O-])c(O)c1O [Compound 10]	50 to 500 nM
COC(=O)c1ccc(C(=O)NCc2cccnc2)c(O)c1O [Compound 17]	50 to 500 nM
